# target.desc: ZNF721 DBD2 (Homo sapiens, UniProt Q8TF20-2 395-923)
# Sequence (Q8TF20 383-911): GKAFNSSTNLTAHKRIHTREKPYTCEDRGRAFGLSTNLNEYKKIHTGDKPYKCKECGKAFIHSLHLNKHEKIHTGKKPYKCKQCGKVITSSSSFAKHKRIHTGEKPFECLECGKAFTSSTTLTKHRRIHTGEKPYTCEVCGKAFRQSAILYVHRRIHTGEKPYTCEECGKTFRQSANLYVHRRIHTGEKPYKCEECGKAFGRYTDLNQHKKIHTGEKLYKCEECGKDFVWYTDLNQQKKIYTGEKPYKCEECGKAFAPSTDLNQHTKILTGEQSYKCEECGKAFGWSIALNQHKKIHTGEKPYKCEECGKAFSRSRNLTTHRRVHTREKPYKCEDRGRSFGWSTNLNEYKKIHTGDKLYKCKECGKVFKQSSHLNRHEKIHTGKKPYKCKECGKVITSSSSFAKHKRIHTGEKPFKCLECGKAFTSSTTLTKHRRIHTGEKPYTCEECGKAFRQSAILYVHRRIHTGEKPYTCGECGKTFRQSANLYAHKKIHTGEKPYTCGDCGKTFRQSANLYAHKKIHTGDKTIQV
# experimental.details: HT-SELEX; 20 mM HEPES pH 7, 140 mM KCl, 5 mM NaCl, 1 mM K2HPO4, 2 mM MgSO4, 100 uM EGTA, ZnSO4, 0.1% Tween20; room temperature, 1 h; high values mean tight binding
# run.conditions: protein: ivt; tags: eGFP (N-terminal); dsDNA, one strand shown
log10 of binding signal overview
readout.kind: log10 of binding signal (log10 of the value in relative 10-mer count)

sequence.record | target.desc | log10 of binding signal
CCCACACCCC | ZNF721 DBD2 (Homo sapiens, UniProt Q8TF20-2 395-923) | -2.39
TCCCCACCCA | ZNF721 DBD2 (Homo sapiens, UniProt Q8TF20-2 395-923) | -2.37
CAGAAAACAG | ZNF721 DBD2 (Homo sapiens, UniProt Q8TF20-2 395-923) | -0.58
AGGGGCGGGG | ZNF721 DBD2 (Homo sapiens, UniProt Q8TF20-2 395-923) | -2.77
CCCACCCCCG | ZNF721 DBD2 (Homo sapiens, UniProt Q8TF20-2 395-923) | -2.58
ACCCTCCCCC | ZNF721 DBD2 (Homo sapiens, UniProt Q8TF20-2 395-923) | -2.24
GCCCCGCCCC | ZNF721 DBD2 (Homo sapiens, UniProt Q8TF20-2 395-923) | -2.81
CCCCACCACA | ZNF721 DBD2 (Homo sapiens, UniProt Q8TF20-2 395-923) | -2.28
CACCCCGCCC | ZNF721 DBD2 (Homo sapiens, UniProt Q8TF20-2 395-923) | -2.52
CCCCGCCCCC | ZNF721 DBD2 (Homo sapiens, UniProt Q8TF20-2 395-923) | -2.64
CACCCGCCCA | ZNF721 DBD2 (Homo sapiens, UniProt Q8TF20-2 395-923) | -2.62
CCCACCTACC | ZNF721 DBD2 (Homo sapiens, UniProt Q8TF20-2 395-923) | -2.18
AGGGGGGCGG | ZNF721 DBD2 (Homo sapiens, UniProt Q8TF20-2 395-923) | -2.92
AAAGAAACAG | ZNF721 DBD2 (Homo sapiens, UniProt Q8TF20-2 395-923) | -0.92
GGGAGGGGGA | ZNF721 DBD2 (Homo sapiens, UniProt Q8TF20-2 395-923) | -2.40
CAGCATACCC | ZNF721 DBD2 (Homo sapiens, UniProt Q8TF20-2 395-923) | -0.04
AAAAAGCAGG | ZNF721 DBD2 (Homo sapiens, UniProt Q8TF20-2 395-923) | -0.76
CCGCCCACCA | ZNF721 DBD2 (Homo sapiens, UniProt Q8TF20-2 395-923) | -2.81
AAAAAAAGAA | ZNF721 DBD2 (Homo sapiens, UniProt Q8TF20-2 395-923) | -1.49
CCCTCACCCC | ZNF721 DBD2 (Homo sapiens, UniProt Q8TF20-2 395-923) | -2.56
CCAACCCCAC | ZNF721 DBD2 (Homo sapiens, UniProt Q8TF20-2 395-923) | -2.54
CGCCCACCAC | ZNF721 DBD2 (Homo sapiens, UniProt Q8TF20-2 395-923) | -2.42
AAGAAAACAG | ZNF721 DBD2 (Homo sapiens, UniProt Q8TF20-2 395-923) | -0.65
AACAGCATCC | ZNF721 DBD2 (Homo sapiens, UniProt Q8TF20-2 395-923) | -1.00
CGAAAAACAG | ZNF721 DBD2 (Homo sapiens, UniProt Q8TF20-2 395-923) | -0.65
GGGGGTGGGA | ZNF721 DBD2 (Homo sapiens, UniProt Q8TF20-2 395-923) | -2.51
AACAAGCAGC | ZNF721 DBD2 (Homo sapiens, UniProt Q8TF20-2 395-923) | -1.00
AGGGTGGTGG | ZNF721 DBD2 (Homo sapiens, UniProt Q8TF20-2 395-923) | -2.34
CCCGACCCCC | ZNF721 DBD2 (Homo sapiens, UniProt Q8TF20-2 395-923) | -2.84
AAAAAACAGG | ZNF721 DBD2 (Homo sapiens, UniProt Q8TF20-2 395-923) | -0.54
CCCTGTTTTC | ZNF721 DBD2 (Homo sapiens, UniProt Q8TF20-2 395-923) | -0.73
CCGACCCACC | ZNF721 DBD2 (Homo sapiens, UniProt Q8TF20-2 395-923) | -2.33
AAGCAGCATA | ZNF721 DBD2 (Homo sapiens, UniProt Q8TF20-2 395-923) | -0.70
CCCTGCCCCC | ZNF721 DBD2 (Homo sapiens, UniProt Q8TF20-2 395-923) | -2.58
CCCACACCAC | ZNF721 DBD2 (Homo sapiens, UniProt Q8TF20-2 395-923) | -2.30
CAAAACAGCA | ZNF721 DBD2 (Homo sapiens, UniProt Q8TF20-2 395-923) | -0.69
CACCCTCCCC | ZNF721 DBD2 (Homo sapiens, UniProt Q8TF20-2 395-923) | -2.51
CTCCCCCCGC | ZNF721 DBD2 (Homo sapiens, UniProt Q8TF20-2 395-923) | -2.84
CTCCACCCCC | ZNF721 DBD2 (Homo sapiens, UniProt Q8TF20-2 395-923) | -2.33
CCCGTCCCCC | ZNF721 DBD2 (Homo sapiens, UniProt Q8TF20-2 395-923) | -2.74
CCCTCCCCAC | ZNF721 DBD2 (Homo sapiens, UniProt Q8TF20-2 395-923) | -2.06
CCGCCCGCCC | ZNF721 DBD2 (Homo sapiens, UniProt Q8TF20-2 395-923) | -2.72
CCTCCGCCCC | ZNF721 DBD2 (Homo sapiens, UniProt Q8TF20-2 395-923) | -2.52
ACCACCCCGC | ZNF721 DBD2 (Homo sapiens, UniProt Q8TF20-2 395-923) | -2.60
ACCACCACCC | ZNF721 DBD2 (Homo sapiens, UniProt Q8TF20-2 395-923) | -2.21
CCCCACACCC | ZNF721 DBD2 (Homo sapiens, UniProt Q8TF20-2 395-923) | -2.35
CTGTTTTTTA | ZNF721 DBD2 (Homo sapiens, UniProt Q8TF20-2 395-923) | -0.55
CCACCAACCC | ZNF721 DBD2 (Homo sapiens, UniProt Q8TF20-2 395-923) | -2.31
AAAAACAGCC | ZNF721 DBD2 (Homo sapiens, UniProt Q8TF20-2 395-923) | -0.76
CAGCGTCTCC | ZNF721 DBD2 (Homo sapiens, UniProt Q8TF20-2 395-923) | -0.14
ACCCCCCCCC | ZNF721 DBD2 (Homo sapiens, UniProt Q8TF20-2 395-923) | -2.74
CCCATCCCCA | ZNF721 DBD2 (Homo sapiens, UniProt Q8TF20-2 395-923) | -2.26
CCGCCCTCCC | ZNF721 DBD2 (Homo sapiens, UniProt Q8TF20-2 395-923) | -2.60
CGCCCGCCCC | ZNF721 DBD2 (Homo sapiens, UniProt Q8TF20-2 395-923) | -2.84
CCCACCCATC | ZNF721 DBD2 (Homo sapiens, UniProt Q8TF20-2 395-923) | -2.23
CAAAAAAACA | ZNF721 DBD2 (Homo sapiens, UniProt Q8TF20-2 395-923) | -0.58
CACTGTTTTC | ZNF721 DBD2 (Homo sapiens, UniProt Q8TF20-2 395-923) | -0.61
AAACAGTGTT | ZNF721 DBD2 (Homo sapiens, UniProt Q8TF20-2 395-923) | -0.26
GAAAAAAAAA | ZNF721 DBD2 (Homo sapiens, UniProt Q8TF20-2 395-923) | -1.29
CACCCACCCC | ZNF721 DBD2 (Homo sapiens, UniProt Q8TF20-2 395-923) | -2.52
CCTCCCCCCG | ZNF721 DBD2 (Homo sapiens, UniProt Q8TF20-2 395-923) | -2.46
ACCGCCACCC | ZNF721 DBD2 (Homo sapiens, UniProt Q8TF20-2 395-923) | -2.72
AGTGTTTCCA | ZNF721 DBD2 (Homo sapiens, UniProt Q8TF20-2 395-923) | -0.55
CAAAGCAGTG | ZNF721 DBD2 (Homo sapiens, UniProt Q8TF20-2 395-923) | -0.70
CCGCCACCAC | ZNF721 DBD2 (Homo sapiens, UniProt Q8TF20-2 395-923) | -2.44
CACCCCACCG | ZNF721 DBD2 (Homo sapiens, UniProt Q8TF20-2 395-923) | -2.43
CCCACACACC | ZNF721 DBD2 (Homo sapiens, UniProt Q8TF20-2 395-923) | -2.34
GCATACCCTA | ZNF721 DBD2 (Homo sapiens, UniProt Q8TF20-2 395-923) | -0.66
GCTTCATACA | ZNF721 DBD2 (Homo sapiens, UniProt Q8TF20-2 395-923) | -2.74
ACCCCCTCCC | ZNF721 DBD2 (Homo sapiens, UniProt Q8TF20-2 395-923) | -2.30
AGCGTCTCCA | ZNF721 DBD2 (Homo sapiens, UniProt Q8TF20-2 395-923) | -0.41
ACCGAAAAAA | ZNF721 DBD2 (Homo sapiens, UniProt Q8TF20-2 395-923) | -1.31
CAAAGCAGCG | ZNF721 DBD2 (Homo sapiens, UniProt Q8TF20-2 395-923) | -0.80
CCACCGCCAC | ZNF721 DBD2 (Homo sapiens, UniProt Q8TF20-2 395-923) | -2.22
CCCAAAAAAA | ZNF721 DBD2 (Homo sapiens, UniProt Q8TF20-2 395-923) | -1.17
CCACGCCACC | ZNF721 DBD2 (Homo sapiens, UniProt Q8TF20-2 395-923) | -2.35
CCAAAAACAG | ZNF721 DBD2 (Homo sapiens, UniProt Q8TF20-2 395-923) | -0.84
AAAACAGCGC | ZNF721 DBD2 (Homo sapiens, UniProt Q8TF20-2 395-923) | -0.65
